All figures here come from patent US10196403B2.

Test system: mice
Assay: Neuropharmacological Assay (SmartCube)
Format: in vivo
Details: mice, i.p. 15 min before test, most efficacious dose(s) of 3 doses
measure: PS: anti-psychotic (SmartCube probability)

molecule: CNC[C@H]1OC[C@H](O)c2ccc3c(c21)OCO3 (single isomer, unassigned) [Example 112]
measured_value: + (LOQ≤ + <5%)

molecule: CNC[C@@H]1OCCc2c(O)cc3c(c21)OCO3 (single isomer, unassigned) [Example 103]
measured_value: + (LOQ≤ + <5%)

molecule: CNC[C@@H]1OCc2cccc(F)c21 [Example 69]
measured_value: ++ (5%≤ ++ <25%)

molecule: CNC[C@H]1OCCc2cccc(C)c21 [Example 40]
measured_value: ++ (5%≤ ++ <25%)

molecule: CNC[C@H]1OCCc2c1ccc1c2OCO1 [Example 3]
measured_value: + (LOQ≤ + <5%)

molecule: CNC[C@@H]1OCCc2cccc(Cl)c21 [Example 37]
measured_value: ++ (5%≤ ++ <25%)

molecule: Cc1cccc2c1CCO[C@H]2CN [Example 73, (R)-(5-methylisochroman-1-yl)methanamine]
measured_value: + (LOQ≤ + <5%)

molecule: CNC[C@@H]1OCCc2c(F)ccc(F)c21 [Example 31]
measured_value: + (LOQ≤ + <5%)

molecule: CNC[C@H]1OCc2cccc(F)c21 [Example 68]
measured_value: ++ (5%≤ ++ <25%)

molecule: CNC[C@@H]1OCCc2c1ccc1c2OCO1 [Example 4]
measured_value: + (LOQ≤ + <5%)

Q) Field: PS: anti-psychotic (SmartCube probability) (mice). Entry: CNC[C@H]1OC[C@@H](O)c2ccc3c(c21)OCO3 (single isomer, unassigned) [Example 113]
A) + (LOQ≤ + <5%)

Q) What PS: anti-psychotic (SmartCube probability) appears in the records for this molecule with mice? Cc1cccc2c1[C@@H](CN)OCC2 [Example 74, (S)-(8-methylisochroman-1-yl)methanamine]
A) + (LOQ≤ + <5%)

Q) For the record CNC[C@@H]1OCCc2ccc(F)cc21 [Example 15] , what value of PS: anti-psychotic (SmartCube probability) is listed for mice?
A) +++ (25%≤ +++ <50%)

Q) Could you share what PS: anti-psychotic (SmartCube probability) was measured for NC[C@@H]1OCCc2c(Cl)cccc21 [Example 67, (R)-(5-chloroisochroman-1-yl)methanamine] , tested on mice?
A) ++ (5%≤ ++ <25%)

Q) Kindly state the measured PS: anti-psychotic (SmartCube probability) obtained for CNC[C@@H]1OCCc2c(F)cccc21 [Example 14] with mice.
A) ++ (5%≤ ++ <25%)

Q) Fill in the recorded PS: anti-psychotic (SmartCube probability) for this molecule, with mice as test system: CNC(C)C1OCCc2ccc3c(c21)OCO3 (stereo not shown) [Example 57]
A) + (LOQ≤ + <5%)

Q) Reported PS: anti-psychotic (SmartCube probability) for mice, given CNC[C@H]1OCc2c(Cl)cccc21 [Example 92] ?
A) + (LOQ≤ + <5%)

Q) Quick check: PS: anti-psychotic (SmartCube probability) on mice, item CNC[C@H]1OCCc2c(Cl)cccc21 [Example 32] ?
A) ++ (5%≤ ++ <25%)

Q) What is its PS: anti-psychotic (SmartCube probability) for mice? Entry: CCNC[C@@H]1OCCc2cccc(F)c21 [Example 87]
A) ++ (5%≤ ++ <25%)

Q) Please tell me: PS: anti-psychotic (SmartCube probability) of CNC[C@@H]1OCC(F)(F)c2ccccc21 [Example 28] , system mice?
A) +++ (25%≤ +++ <50%)

Q) // fetch mice PS: anti-psychotic (SmartCube probability) for NC[C@H]1OCCc2cccc(Cl)c21 [Example 70, (S)-(8-chloroisochroman-1-yl)methanamine]
A) +++ (25%≤ +++ <50%)

Q) Could you share what PS: anti-psychotic (SmartCube probability) was measured for CNC[C@H]1OCCc2cc(Cl)ccc21 [Example 80] , tested on mice?
A) +++ (25%≤ +++ <50%)

Q) Item CNC[C@@H]1OCCc2c1cccc2C(F)(F)F [Example 79] with mice - PS: anti-psychotic (SmartCube probability)?
A) + (LOQ≤ + <5%)

Q) Under mice: PS: anti-psychotic (SmartCube probability) value of CNC[C@@H]1OCC(C)(C)c2ccccc21 [Example 24] ?
A) +++ (25%≤ +++ <50%)

Q) # query: PS: anti-psychotic (SmartCube probability) | item CNC[C@H]1OCCc2cc3c(cc21)OCO3 (stereo in doubt) [Example 5] | system: mice
A) + (LOQ≤ + <5%)

Q) Can you look up PS: anti-psychotic (SmartCube probability) on mice for CNC[C@H]1OCCc2ccc3c(c21)OCO3 [Example 1] ?
A) ++ (5%≤ ++ <25%)

Q) For mice, provide PS: anti-psychotic (SmartCube probability) of NC[C@@H]1OCCc2cccc(Cl)c21 [Example 71, (R)-(8-chloroisochroman-1-yl)methanamine] please.
A) ++ (5%≤ ++ <25%)

Q) Query PS: anti-psychotic (SmartCube probability) on mice for CNC[C@@H]1OCCc2c(C)cccc21 [Example 39]
A) ++ (5%≤ ++ <25%)

Q) Entry CNC[C@@H]1OCCc2c(OC)cccc21 [Example 63] , system mice: what PS: anti-psychotic (SmartCube probability) was measured?
A) + (LOQ≤ + <5%)

Q) Enter reported PS: anti-psychotic (SmartCube probability) observed with mice for CN(C)C[C@H]1OCCc2cccc(F)c21 [Example 84]
A) ++ (5%≤ ++ <25%)
